biological target: human CaSR (Homo sapiens, UniProt P41180); test: CaSR FLIPR assay (calcilytic activity); type: cell-based; parameters: expressed in transfected cells; conditions: HEK293 cells stably expressing human recombinant CaSR; 1 mM CaCl2 agonist; Tables 1-24; read-out: FLIPR ASSAY IC50
Sequence (P41180 20-1078): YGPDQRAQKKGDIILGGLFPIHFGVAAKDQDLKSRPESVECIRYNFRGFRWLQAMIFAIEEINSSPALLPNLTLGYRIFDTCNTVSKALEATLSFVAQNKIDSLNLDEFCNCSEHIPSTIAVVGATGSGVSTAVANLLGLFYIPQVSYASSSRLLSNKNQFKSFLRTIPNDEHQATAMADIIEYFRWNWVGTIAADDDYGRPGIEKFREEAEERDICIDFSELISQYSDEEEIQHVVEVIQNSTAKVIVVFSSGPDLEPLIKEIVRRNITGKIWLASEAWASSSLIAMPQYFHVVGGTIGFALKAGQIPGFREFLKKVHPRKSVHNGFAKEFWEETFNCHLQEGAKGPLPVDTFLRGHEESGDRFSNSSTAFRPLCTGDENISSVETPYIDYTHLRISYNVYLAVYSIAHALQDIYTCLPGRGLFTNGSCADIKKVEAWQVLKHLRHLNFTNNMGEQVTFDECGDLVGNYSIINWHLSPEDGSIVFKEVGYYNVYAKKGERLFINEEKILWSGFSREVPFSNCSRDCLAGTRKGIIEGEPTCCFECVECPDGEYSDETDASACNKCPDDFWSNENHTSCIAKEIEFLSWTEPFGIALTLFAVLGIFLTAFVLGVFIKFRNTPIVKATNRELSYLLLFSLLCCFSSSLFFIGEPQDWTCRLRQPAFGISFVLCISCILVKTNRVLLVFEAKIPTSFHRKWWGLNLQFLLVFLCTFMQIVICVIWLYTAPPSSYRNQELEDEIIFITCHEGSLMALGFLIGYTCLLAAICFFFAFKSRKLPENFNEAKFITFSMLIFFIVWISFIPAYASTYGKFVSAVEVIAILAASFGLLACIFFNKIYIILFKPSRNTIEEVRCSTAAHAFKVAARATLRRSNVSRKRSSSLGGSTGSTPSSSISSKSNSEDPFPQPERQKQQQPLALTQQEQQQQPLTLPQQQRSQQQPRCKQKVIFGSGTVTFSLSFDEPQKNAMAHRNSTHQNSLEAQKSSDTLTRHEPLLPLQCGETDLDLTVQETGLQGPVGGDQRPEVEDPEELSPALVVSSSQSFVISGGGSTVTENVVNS
measured.quantity: pIC50
Please report pIC50 as the negative decimal logarithm of the molar concentration, giving only the number.

| compound | target.desc | recorded.result |
| --- | --- | --- |
| Cc1ccc([C@@H](C)OC[C@H](O)CNC(C)(C)Cc2cc3ccccc3s2)c2c1O[C@@H]1[C@@H](C(=O)O)[C@H]21 [Example 8-6] | human CaSR (Homo sapiens, UniProt P41180) | 7.02 |
| Cc1ccc([C@@H](C)OC[C@H](O)CNC(C)(C)CCCc2ccccc2)c2c1O[C@@H]1[C@@H](C(=O)O)[C@H]21 [Example 8-16] | human CaSR (Homo sapiens, UniProt P41180) | 7.54 |
| C[C@@H](OC[C@H](O)CNC(C)(C)Cc1ccc2occc2c1)c1cccc2c1O[C@@H]1[C@@H](C(=O)O)[C@H]21 [Example 1-6] | human CaSR (Homo sapiens, UniProt P41180) | 7.31 |
| CSc1ccc(CC(C)(C)NC[C@@H](O)CO[C@H](C)c2cccc3c2O[C@@H]2[C@@H](C(=O)O)[C@H]32)cc1Cl [Example 1-21] | human CaSR (Homo sapiens, UniProt P41180) | 7.07 |

-- ask Suppose we examine the compound Cc1ccc(C(C)OC[C@H](O)CNC(C)(C)Cc2ccc3ccccc3c2)c2c1OC(C)(C)C1C(C(=O)O)C21 (stereo partly drawn) [Example 24-1] ; what pIC50 value has been reported?
-- reply 6.97

-- ask What do we get for Cc1ccc([C@@H](C)OC[C@H](O)CNC(C)(C)Cc2ccc3c(c2)OCCO3)c2c1O[C@@H]1[C@@H](C(=O)O)[C@H]21 [Example 8-13] ?
-- reply 7.66

---

target: human CaSR (Homo sapiens); assay: CaSR FLIPR assay (calcilytic activity); type: cell-based; parameters: expressed in transfected cells; details: HEK293 cells stably expressing human recombinant CaSR; 1 mM CaCl2 agonist; Tables 1-24; read-out: FLIPR ASSAY IC50
measured.quantity: pIC50
API: returns pIC50 as number; meaning -log10 of concentration in mol/L.

Some solved entries appear below for comparison.
| molecule | pIC50 |
| --- | --- |
| Cc1ccc([C@@H](C)OC[C@H](O)CNC(C)(C)CC2Cc3ccccc3C2)c2c1O[C@H]1[C@H](C(=O)O)[C@@H]21 [Example 9-3] | 7.34 |
| CSc1ccc(CC(C)(C)NC[C@@H](O)CO[C@H](C)c2cccc3c2O[C@H]2[C@H](C(=O)O)[C@@H]32)cc1F [Example 2-9] | 6.08 |
| CC(OC[C@H](O)CNC(C)(C)Cc1ccc2ccccc2c1)c1ccc2c(c1)C1C(O2)C1C(=O)O (stereo partly drawn) [Example 21-1] | 5.57 |
| C[C@@H](OC[C@H](O)CNC(C)(C)Cc1ccc2ccccc2c1)c1cccc2c1O[C@@H]1[C@@H](C(=O)O)[C@H]21 [Example 1-1] | 7.59 |

-- ask Which measured pIC50 value corresponds to COc1ccc(CC(C)(C)NC[C@@H](O)CO[C@H](C)c2cccc3c2[C@@H]2[C@H](O3)[C@H]2C(=O)O)c(Cl)c1 [Example 5-16] ?
-- reply 7.42

-- ask Can you handle Cc1ccc(CC(C)(C)NC[C@@H](O)CO[C@H](C)c2ccc(C)c3c2[C@H]2[C@@H](O3)[C@@H]2C(=O)O)cc1F [Example 9-4] next?
-- reply 7.17
